protocol-details: Gel inhibition in concentrated aqueous vancomycin.HCl solutions
Format: physicochemical
Set-up: key: G = gel formation; NG = No gel formation
applied-conditions: test compound 10% v/v in aqueous vancomycin.HCl 20% w/v, pH about 3.2, Waring blender high speed 3 minutes
quantity-kind: Test Result (gel formation)

INSERT INTO measurements (compound, observed) VALUES
  ('CO', 'G'),
  ('CC(C)O', 'NG'),
  ('CCC(C)=O', 'NG'),
  ('CC(C)=O', 'NG'),
  ('CCOC(C)=O [Ethyl acetate]', 'G'),
  ('CC(=O)OC(C)C [Isopropyl acetate]', 'NG'),
  ('CC(O)CO (stereo not drawn)', 'NG'),
  ('OCC(O)CO', 'G'),
  ('CCO', 'NG');
